FYI, the data here is from PubChem BioAssay AID565.

- assayed_system: Gag-Pol polyprotein (Human immunodeficiency virus type 1 group M subtype B (isolate HXB2)) (UniProt P04585)
- experiment_description: HIV-1 RT RNase H inhibitors, primary screen, biochemical, fluorescence (AID 565)
- measurement_parameters: RT-RNase H RNA/DNA duplex cleavage, at 10 µM, active compounds read high
About 1,200 (1.8%) of roughly 65,000 compounds were called active. Many of the other results were omitted from the sample, so actives are more common in it than they were.
endpoint_label: inhibition (%)
Please respond with the number in % and leave the unit unwritten.

Some compounds with recorded inhibition:
> print(dat)
                                   compound  reported.result
1  COc1ccc(NC(=O)CN2CCN(S(=O)(=O)c3ccc(F)cc3)CC2)cc1Cl            -9.57
2   COC(=O)c1ccc(OC(=O)c2nn(C)cc2Cl)c(OC)c1            -6.66

Given CN(C)c1cc(N)c2ccccc2n1 (tested in a mixture with another compound) , state its recorded inhibition.
-10

Given `Cc1noc(NS(=O)(=O)c2ccc(N3CC(O)=C(c4ccccc4)C3=N)cc2)c1C` , state its recorded inhibition.
-3.39

Given COc1cc2[nH]c(=S)n(CCN3CCCCC3C)c(=O)c2cc1OC (configuration not stated) , state its recorded inhibition.
-11

Given O=C(O)C1CCCN(S(=O)(=O)c2cccc3cccnc23)C1 (configuration not stated) , state its recorded inhibition.
-3.84

Given Cc1cc(=O)n2nc(N3CCCC(C(=O)NCCC4=CCCCC4)C3)sc2n1 (configuration not stated) , state its recorded inhibition.
-4.48
